experimental-target: T1, Mouse BSSL, recombinant (mouse, UniProt Q64285 21-599)
T1 construct: Bought (R&D Systems, Cat. no 5658-CE); also called mBSSL; murine BSSL
T1 sequence: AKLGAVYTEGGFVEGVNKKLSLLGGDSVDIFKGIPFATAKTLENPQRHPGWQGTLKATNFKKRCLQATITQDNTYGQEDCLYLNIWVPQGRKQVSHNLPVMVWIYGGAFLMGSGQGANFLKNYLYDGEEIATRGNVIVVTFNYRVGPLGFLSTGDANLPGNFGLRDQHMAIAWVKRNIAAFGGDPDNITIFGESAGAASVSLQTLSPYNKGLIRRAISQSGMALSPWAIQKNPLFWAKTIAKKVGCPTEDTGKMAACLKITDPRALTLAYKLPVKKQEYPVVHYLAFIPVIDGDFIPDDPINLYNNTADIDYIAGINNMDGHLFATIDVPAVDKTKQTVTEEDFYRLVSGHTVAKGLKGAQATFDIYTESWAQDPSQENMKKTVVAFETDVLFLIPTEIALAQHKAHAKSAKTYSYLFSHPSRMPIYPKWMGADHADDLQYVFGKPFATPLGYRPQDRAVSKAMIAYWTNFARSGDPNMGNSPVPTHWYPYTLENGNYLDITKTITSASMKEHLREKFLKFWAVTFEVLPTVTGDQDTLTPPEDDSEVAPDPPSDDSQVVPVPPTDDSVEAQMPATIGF
assay-summary: SPR steady state, hIgG4 S228P captured by anti-Fab
Assign pKd to each entry below.
Numbers only, as −log10 of the molar value.

Record excerpt, results attached:
In plain terms, S-SL048-48 hIgG4 S228P (antibody, V domains shown, Tested as human IgG4 S228P) VH: QVQLVQSGAEVKKPGASVKVSCKASGYTFTSYNMHWVRQAPGQGLEWIGVINPGDGATSYAQKFQGRVTMTRDTSTSTVYMELSSLRSEDTAVYYCARDYYGSSPLGYWGQGTLVTVSS VL: DIQMTQSPSSLSASVGDRVTITCRASPSISYMNWYQQKPGKAPKLLIYATSRLQSGVPSRFSGSGSGTDFTLTISSLQPEDFATYYCHQRSSSPTFGQGTKLEIK has a documented pKd of 7.39

Reported pKd for S-SL048-81 hIgG4 S228P (antibody, V domains shown, Tested as human IgG4 S228P) VH: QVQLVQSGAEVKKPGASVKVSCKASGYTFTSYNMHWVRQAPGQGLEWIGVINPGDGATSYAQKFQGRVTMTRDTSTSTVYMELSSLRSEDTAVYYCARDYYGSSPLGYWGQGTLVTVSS VL: DIQMTQSPSSLSASVGDRVTITCRASSSISYMHWYQQKPGKAPKLLIYAASSLQSGVPSRFSGSGSGTDFTLTISSLQPEDFATYYCHQRSSSPTFGQGTKLEIK was 7.22

Then this binder:
Kindly note the recorded pKd for S-SL048-74 hIgG4 S228P (antibody, V domains shown, Tested as human IgG4 S228P) VH: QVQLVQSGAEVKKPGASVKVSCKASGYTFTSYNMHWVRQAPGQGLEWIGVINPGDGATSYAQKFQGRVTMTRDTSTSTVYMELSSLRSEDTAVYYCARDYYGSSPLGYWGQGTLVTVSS VL: DIQMTQSPSSLSASVGDRVTITCRASQSISYLNWYQQKPGKAPKLLIYAASSLASGVPSRFSGSGSGTDFTLTISSLQPEDFATYYCHQRSSSPTFGQGTKLEIK , which is 7.68
